- Test system: VchCAST RNA-guided transposition machinery (E. coli BL21(DE3) host, lacZ target)
- procedure.text: relative integration efficiency (T-RL orientation) vs wild-type transposon end (log2 (normalized fold change)); transposon end mutated: right end (5 bp flank + 75 bp right end); higher = more efficient transposition
Please respond with reported relative integration efficiency (log2) for every item in the list.
API doc: respond with a numeric literal and nothing else, no unit.

## Input Item ACATTTGTTGATACAACCATAAAATGATAATTACACCCATAAATTGATAATTATCACACCCATAAATTGATATTGCCTCTATGTACACTGATGAGTTATTACACCTCAAGTTCAATGGCACCGACAC has what recorded relative integration efficiency (log2)?
## Output -0.228

## Input Same read-out for ACATTTGTTGAATGTACCATAAAATGATAATTACACCCATAAATTGATAATTATCACACCCATAAATTGATATTGCCTCTGATCATAGTCAGACCAACATTGCTACGACCCGTATTCGCACCGACAC ?
## Output -0.836

## Input Same read-out for ACATTTGTTGATACAACCATTAAATGATAATTACACCCATAAATTGATAATAATGACACCGAATTTAACTATAACGCTCTGATCATAGTCAGACCAACATTGCTACGACCCGTATTCGCACCGACAC ?
## Output -0.985

## Input Same read-out for ACATTTGTTGATACAACCATAAAATCATAATTACACCCATAAATTCATAATTATCACACCCATAAATTCATATTGCCTCTGATCATAGTCAGACCAACATTGCTACGACCCGTATTCGCACCGACAC ?
## Output -4.92

## Input Same read-out for ACATTTGTGGATACAACCATAAAATGATAATTACACCCATAAATTCATTATTATCACACCCAATTTAACTATAACGCTCTGATCATAGTCAGACCAACATTGCTACGACCCGTATTCGCACCGACAC ?
## Output -2.59

###

- Test system: VchCAST RNA-guided transposition machinery (E. coli BL21(DE3) host, lacZ target)
- procedure.text: relative integration efficiency (T-LR orientation) vs wild-type transposon end (log2 (normalized fold change)); transposon end mutated: right end (5 bp flank + 75 bp right end); higher = more efficient transposition
experimental.endpoint: relative integration efficiency (log2)
API doc: respond with a numeric literal and nothing else, no unit.

## Input API: value(readout=relative integration efficiency (log2), system=VchCAST RNA-guided transposition machinery (E. coli BL21(DE3) host, lacZ target)) for record ACATTTGTTGATACAACCATAAAATGATAATTACACCCATAAATTGATAATTATCACACCCATAAATTGATATTGCCTCTGATCATATTTAATAATTAATTTATATATTTAAGTCAGGCACCGACAC
## Output 0.961

## Input Same read-out for ACATTTGTTGATACAACCATAAAATGCGCCGGCCACCCATAAATTGCGCCGGCTCACACCCATAAATTGCGCGGTACTCTGATCATAGTCAGACCAACATTGCTACGACCCGTATTCGCACCGACAC ?
## Output -3.06

## Input Same read-out for ACATTTGTTGATACACCCATAAATTGATAATTACAACCATATATTGATATCTCTCACAACCATAAAGTGATATTTACTCTGATCATAGTCAGACCAACATTGCTACGACCCGTATTCGCACCGACAC ?
## Output 0.11
